- Test system: MS2 coat protein
- assay.notes: apparent KD of MS2 coat protein; designed switch direction (-1 OFF switch, 1 ON switch): -1; higher = weaker reporter binding
- reported.conditions: input ligand: FMN 200 uM
Here the recorded apparent KD of MS2 coat protein is given for each entry.
measurement.label: apparent KD of MS2 coat protein (nM)

# sequence.string, measurement.label, measured.number
records = [
    ("CCGUAACAUGAGGAUCACCCAUGUUAGGAUAUGUAGCGCUGGGCAUCCUCAGCUGGUUAUAGAAGGGACGAGGG [Eternabot (L2) Solution 15] (Eterna round: R97, puzzle: Exclusion 1)", "apparent KD of MS2 coat protein", 73.7),
    ("GGAUCGAAUGUGAGGAUAUGCAGGUCCUUGGAUCUGCAGAAGGCACAUGAGGAUCACCCAUGUGACCUAGAUCC [Mat - Exclusion 4 - Eli Mod - D44] (Eterna round: R97, puzzle: Brourd's mod of Exclusion 4)", "apparent KD of MS2 coat protein", 268),
    ("AGUAAUUCAAGAGGAUAUCACAUGAGGAUCACCCAUGUAUAGCGCGCUACGCUAGUCCUCGUAUUUGAGAAGGUUUGAUAAAUG [JL ViennaUCT Quve mod 1] (Eterna round: R96, puzzle: Exclusion NG 2)", "apparent KD of MS2 coat protein", 14.4),
    ("GCACGGAGUGUAGGAUAUCUGUGCGAUUAGCUCAGAGAAGGACACAUGAGGAUCACCCAUGUUACCUCAAUUAGCCUUCCGUGC [Eli exng1 - 032] (Eterna round: R96, puzzle: Exclusion NG 1)", "apparent KD of MS2 coat protein", 30.4),
    ("CACGUGUCAGGAUAUAGGACAGAUAUAGUCACAAUCUCUGCCUAGAAGGGACAUGAGGAUCACCCAUGUCUAUA [EX4 C.17] (Eterna round: R97, puzzle: Exclusion 4)", "apparent KD of MS2 coat protein", 27.6),
    ("UUGUUAUAUGUAGGAUAUGCGUAUUAUUAUUGGGCAGAAGGACAUGAGGAUCACCCAUGUAUGUUGUUGUUAUAUAUUAUAUAU [Title] (Eterna round: R96, puzzle: Exclusion NG 1)", "apparent KD of MS2 coat protein", 47.2),
]

---

Here the recorded apparent KD of K4 kissing-loop reporter is given for each entry.
- Test system: K4 kissing-loop RNA reporter
- assay.notes: apparent KD of K4 kissing-loop reporter; higher = weaker reporter binding
- reported.conditions: Eterna round: R107; input ligand: arginine 13.2 mM
measurement.label: apparent KD of K4 kissing-loop reporter (nM)

# sequence.string, tgt, measured.number
records = [
    ("UGAUACCAGACUGAUACCAGCCAGUGAUGUUGGCAAUAUCCAAGGUGAGUCAAAGACUCGGGCCCUUGGCAGCAGUCUGGUAUCU [TheoBX 7 #SwitchBubble #StaticStem]", "K4 kissing-loop RNA reporter", 139),
    ("UCCCUAAAGGGAGAUACCAGUAAAGAAGUGACGGAGUGGAGUGAUGUUCCAUAUUACUGAUACCCUUGGCAGCUCUUUUGAUUAC [theeternabot_sameState_KL_Theo_B_47]", "K4 kissing-loop RNA reporter", 155),
    ("UCCAGGAAUCAUGUCGUAGUGAUGUUAUGACGAGGACCGGUACGGCCGCCACUCGUCGUGGCCGGUUCUGAGGGCUAAUCUCUCA [theeternabot_exclusion_KL_Trp_A_34]", "K4 kissing-loop RNA reporter", 214),
]

---

- Test system: MS2 coat protein
- assay.notes: apparent KD of MS2 coat protein; higher = weaker reporter binding
- reported.conditions: Eterna round: R107; input ligand: theophylline 2 mM

# sequence.string, readout.units, apparent KD of MS2 coat protein
measured = [
    ("UACUGUCUAACGGCCGCCACUCAGUCUCGGUUGAUUAUCUUAAGUGACAUGAGGAUCACCCAUGUGAGGACCGGGUUGUGCAUAA [theeternabot_exclusion_MS2_Trp_B_40]", "nM", 96.7),
    ("UAUUAUCAGUCGGCCGCCACUGACACAUGAGGAUCACCCAUGUAAUUUGGGUUAUAUAUAAAUUACAGGACCGGGACAAAUGCUA [JR_Nu13_ExcTryptoB_Sub025]", "nM", 368),
    ("UUUGGCGGCGAUCUGGGUUUACCAGAUCGGCGAGGACCGGUACGGCCGCCACUCGUGUUUCUUUGACAUGAGGAUCACCCAUGUA [whbob_SS_trypto A_f3]", "nM", 102),
    ("ACAUGAGGAUCACCCAUGUGUGUAAGUCCUCGAGGACCGGUACGGCCGCCACUCGAACGAGUGUAACAUACUUGUUACAAGUAUG [SS Trp A s3]", "nM", 43.3),
    ("GAGCACAUGAGGAUCACCCAUGUUGGCACACGAGGACCGGUACGGCCGCCACUCGCGGCGGGAAUAACUUUGCGCAGAUGAUGGG [theeternabot_sameState_MS2_Trp_A_50]", "nM", 23.7),
    ("ACGCGUCAAGAGUAAAAUCCGUCAAGUGAUACCAGCCACAACGUAGGCCCUUGGCAGCACAUGAGGAUCACCCAUGUAAUAAGGA [Gedigerace]", "nM", 670),
]

---

Here the recorded apparent KD of MS2 coat protein is given for each entry.
- Test system: MS2 coat protein
- assay.notes: apparent KD of MS2 coat protein; designed switch direction (-1 OFF switch, 1 ON switch): -1; higher = weaker reporter binding
- reported.conditions: Eterna round: R95; input ligand: microRNA oligo, concentration not stated
measurement.label: apparent KD of MS2 coat protein

# sequence.string, measurement.label, result
measured = [
    ("AGGAAUGAAGGAUAUACAUGAGGAUCACCCAUGUAAAAGGAAAGAGGUGAUGGAGAUAGUAGAAGGUCAAGAAG [JR_Exclusion3_Sub004] (puzzle: Exclusion 3)", "apparent KD of MS2 coat protein", "135 nM"),
    ("UCGCUGCGAGGAUAUACGUUCGCGCGCUUUCGUUUGCGCGUACAUGAGGAUCACCCAUGUAGAAGGCGCGCUGC [Apr-15 SS2-7] (puzzle: Exclusion 2)", "apparent KD of MS2 coat protein", "13.7 nM"),
    ("CAGGACAGAGGAUAUACAUAGAUACAGAUUCAUGUAGAACUACAUGAGGAUCACCCAUGUAGAAGGCUGACCUG [Fiskers Ex 2 - 4] (puzzle: Exclusion 2)", "apparent KD of MS2 coat protein", "27.8 nM"),
    ("AUAACUCUAGUCAGGAUAUGCGAGCAAGGAUUAGAGCAGAAGGGACAUGAGGAUCACCCAUGUGGUAGCUGGGU [Indiraa] (puzzle: Brourd's mod of Exclusion 4)", "apparent KD of MS2 coat protein", "47.3 nM"),
    ("GCGAAAGCAAGCAAGUGAAACAUGAGGAUCACCCAUGUACUCAUUUGCUCGUCUUGUAAGCUAUGCGAAAGCAUAGC [Mat - Sensor v3 - turn-off var 1 - Eli Mod - D51] (puzzle: Sensor v3, turn-off variant 1)", "apparent KD of MS2 coat protein", "9.67 nM"),
]

---

- System: K4 kissing-loop RNA reporter;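 also: bound reporter read as fluorescence of individual clusters on recovered sequencing chips by microscopy, with normalized cluster intensities fitted with a binding model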
- assay.notes: apparent KD of K4 kissing-loop reporter; higher = weaker reporter binding
- reported.conditions: Eterna round: R107; input ligand: FMN 200 uM
Kind request: treat 200 nM as inclusive, so apparent KD of K4 kissing-loop reporter at 200 nM or higher is t, anything lower is f.

# sequence.string, class.assignment
data = [
    ("AAGUGUGUGGCGGCCGCCACUAGAAUCCAGUGAUGUUGGAGUUAUCAUAUAAAUGAUAAUCAACAUAGGACCGGGCCAUAUAGAA [Same State - Tryptophan B (Freestyle 7)]", "t"),
    ("GCUAUGGUAGGAAGGAGCGCUUAUUUAUUAAUAAGAGUGAUGUUCGAUAGUAGAUAUUUAUAGCAGGUAGGUCGCCUACUAUAGC [Arginine B K4 12]", "f"),
    ("UACUAUAGUGAUGUUAUAGAUAAACCAGAUACCAGUGUAACAUAACACCCUUGGCAGCUGAUGAGGGAAGUUAUCAAAAGAUAAC [AstroSTH-A#10designED4.80]", "t"),
    ("AAUUAAGUGACGGCCGCCACUAGGGUGAUUUUUUUGUUUGAGUGAUGUUUUGAUGUUUGAUUUUGUAGGACCGGGUUAGGUGAUG [juhmullin]", "t"),
    ("AGUGAUGUUGUGUUAUGCAAGGGAAGUGAUCGAGGACCGGUACGGCCGCCACUCGAGUGAUGAGUGAGUGAUGUUUGUUUAGGGA [ffgmullin]", "t"),
    ("AAAUUUAUAUUAGAUACCAGCAUAUUGAAAGUUUAUUAUGACAAGAGUGAUGUUCUUGUAUGCCCUUGGCAGCUGGUAUGGGUUU [KL-XTheo-B25]", "f"),
]
